biological target: Sushi domains (SD1/2) protein of the GABAB1a (GB1a) subunit, recombinant; assay: FP competition with AJAP-1probe
Sequence (Q9Z0U4 29-158): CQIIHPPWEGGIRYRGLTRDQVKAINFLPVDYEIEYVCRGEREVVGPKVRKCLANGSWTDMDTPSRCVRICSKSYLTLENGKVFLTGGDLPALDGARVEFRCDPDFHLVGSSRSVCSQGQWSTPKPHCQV
Ki: recorded values
metric: Ki (nM)

>  <binder>
Ac-DDSDVWWGG-NH2

>  <metric>
Ki

>  <units_of_measure>
nM

>  <quantitative_result>
2630

$$$$
>  <binder>
Ac-PWAIVWGPTVSREDG-NH2 [peptide 14 (…)]

>  <metric>
Ki

>  <units_of_measure>
nM

>  <quantitative_result>
465

$$$$
>  <binder>
Ac-EDDSDVWWGGADTDY-NH2 [peptide 13 (…)]

>  <metric>
Ki

>  <units_of_measure>
nM

>  <quantitative_result>
581

$$$$
>  <binder>
Ac-AIVWGPTVSREDGGD-NH2

>  <metric>
Ki

>  <units_of_measure>
nM

>  <quantitative_result>
637

$$$$

Where these numbers come from: patent US20260193293A1
